# tgt: p53-Mdm2 interaction (N-terminal domain of Mdm2 protein, amino acids 1-111) (Homo sapiens)
# Construct: N-terminal domain of Mdm2 protein (amino acids 1-111)
# Sequence (Q00987 1-111): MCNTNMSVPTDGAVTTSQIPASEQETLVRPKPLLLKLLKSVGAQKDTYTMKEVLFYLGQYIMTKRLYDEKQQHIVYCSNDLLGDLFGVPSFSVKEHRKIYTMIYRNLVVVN
# assay_details: Fluorescence polarization (FP) binding assay of p53-Mdm2 interaction
# condition_context: FP assay, 130 nM Mdm2, FAM-labelled p53 peptide; Ki transformed from IC50 using Kenakin equation
metric: Ki (nM)

Some solved entries appear below for comparison.
query: Notebook: pull reported Ki for p53-Mdm2 interaction (N-terminal domain of Mdm2 protein, amino acids 1-111) (Homo sapiens), entry CCOC(=O)/C=C/C(=O)Nc1cccc(C(=O)C2=C(O)C(=O)N(c3cccc(Cl)c3)C23C(=O)Nc2cc(Cl)ccc23)c1 (stereo not shown)
result: 57

query: Notebook: pull reported Ki for p53-Mdm2 interaction (N-terminal domain of Mdm2 protein, amino acids 1-111) (Homo sapiens), entry `O=C1C(O)=C(Sc2ccc(Cl)cc2)[C@]2(C(=O)Nc3cc(Cl)ccc32)N1c1cccc(Cl)c1`
result: 1910

query: Notebook: pull reported Ki for p53-Mdm2 interaction (N-terminal domain of Mdm2 protein, amino acids 1-111) (Homo sapiens), entry O=C1C(O)=C(c2ccccc2)C2(C(=O)Nc3cc(Cl)ccc32)N1c1cccc(Cl)c1 (stereo not shown)
result: 24

query: Notebook: pull reported Ki for p53-Mdm2 interaction (N-terminal domain of Mdm2 protein, amino acids 1-111) (Homo sapiens), entry COc1sccc1-n1cc2c(c1C(C)C)C1(C(=O)Nc3cc(Cl)ccc31)N(c1cc(Cl)ccc1C)C2=O (stereo not shown)
result: 3.4

query: Notebook: pull reported Ki for p53-Mdm2 interaction (N-terminal domain of Mdm2 protein, amino acids 1-111) (Homo sapiens), entry CCOC(=O)c1ccc(Cl)cc1N1C(=O)c2cn(-c3ccccc3OC)c(C(C)C)c2C12C(=O)Nc1cc(Cl)ccc12 (stereo not shown)
result: 4.2

(A) COc1ccccc1-n1nc2c(c1C(C)C)C1(C(=O)Nc3cc(Cl)ccc31)N(c1cc(Cl)cnc1C)C2=O (stereo not shown)
(B) O=C(O)CSC1=C(c2ccccc2)C2(C(=O)Nc3cc(Cl)ccc32)N(c2cccc(Cl)c2)C1=O (stereo not shown)
query: Hi there, can you help? I need to know whether A or B has lower measured Ki. Refer to your chosen entry by its label in the reply.
result: A
(A: 4.3 nM, B: 130 nM)
